The reported numbers originate from patent US6469034B1.

study_system: purified recombinant HIV RT (Human immunodeficiency virus type 1 group M subtype B)
Construct: Addition of 10 mU of recombinant HIV RT
test_summary: Purified RT assay, cell-free Quan-T-RT scintillation proximity assay
Format: biochemical
test_conditions: recombinant HIV RT, 37° C., 1 hour; read-out: IC50 rRT
assay_metric: IC50 (nM)
Response body: numeric value in nM, unit text excluded.

CCOCn1c(Cc2ccccc2)c(C(C)C)c(=O)[nH]c1=O [MKC-442, reference compound] : 800

Please turn your attention to the following entry.
(Q) Recorded IC50 of S=C(NCCc1ccccn1)Nc1ccc(Br)cn1 [Trovirdine, reference compound] , please.
(A) 800
